# Measured on: T1, human GITR (hGITR), soluble analyte (human, UniProt Q9Y5U5 26-162)
# T1 sequence: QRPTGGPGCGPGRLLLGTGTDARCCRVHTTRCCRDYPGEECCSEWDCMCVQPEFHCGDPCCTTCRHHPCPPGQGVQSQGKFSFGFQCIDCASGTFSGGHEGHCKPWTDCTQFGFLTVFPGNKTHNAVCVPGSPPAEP
# Assay procedure: SPR (Biacore T200), 37 C; antibody captured on anti-human Fc chip, GITR as analyte; 1:1 Langmuir fit
Could you please report measured t1/2 for the items listed next?
The answer is to be given in min; state only the numeric part.

Data request: Need t1/2, item h3G7 AM (antibody, V domains shown, Whole IgG captured on an anti-human Fc chip) VH: QVQLVQSGAEVKKPGASVKVSCKASGYTFTGATMNWVRQAPGQGLEWMGLINPYNGGIRYNQKFKGRVTMTRDTSTSTVYMELSSLRSEDTAVYYCARIGGYYDSMDYWGQGTLVTVSS VL: DIQMTQSPSSLSASVGDRVTITCRASESVDPRGINFLNWYQQKPGKAPKLLIYAASNQAKGVPSRFSGSGSGTDFTLTISSLQPEDFATYYCQQALELPWTFGGGTKVEIK
Data returned: 0.61

Data request: Need t1/2, item m10H2 (antibody, V domains shown, In ADCC it is called hIgG1; also called anti-human GITR antibody m10H2; A647 labeled m10H2) VH: QVQLQQSGAELMKPGASVKISCTATGYTISRYWIEWVKQRPGHGLEWIGEILPGSGVTNYNEKFKGKATFTADTSSNTAYMQLSSLTSEDSAVYSCARKGTYYAMDYWGQGTSVTVSS VL: DILLTQSPAILSVSPGERVSFSCRASQSIGTSIHWYQQRTNGSPRLLIKYASESVSGIPSRFSGSGSGTDFTLFINSVESEDIADYYCQQTYSWPATFGAGTKLELK
Data returned: 15

Data request: Need t1/2, item h3G7 R5 (antibody, V domains shown, Only variable domains are tied to this name) VH: QVQLVQSGAEVKKPGASVKVSCKASGYTFTGATMNWVRQAPGQGLEWMGLINPYTGGIRYNQKFKGRVTMTRDTSTSTVYMELSSLRSEDTAVYYCARIGGYYDSMDYWGQGTLVTVSS VL: DIQMTQSPSSLSASVGDRVTITCRASESVEPRGINFLNWYQQKPGKAPKLLIYAASQASKGVPSRFSGSGSGTDFTLTISSLQPEDFATYYCQQALELPWTFGGGTKVEIK
Data returned: 2.6

Data request: Need t1/2, item h10H2 AM (antibody, V domains shown, Whole IgG captured on an anti-human Fc chip) VH: QVQLVQSGAEVKKPGSSVKVSCKASGGTFSRYWIEWVRQAPGQGLEWMGEILPGSGVTFENEKFKGRVTITADESTSTAYMELSSLRSEDTAVYYCARKGRYYAMDYWGQGTLVTVSS VL: EIVLTQSPGTLSLSPGERATLSCRASQSIGTSIHWYQQKPGQAPRLLIYYASESVSGIPDRFSGSGSGTDFTLTISRLEPEDFAVYYCQQTYSWPATFGQGTKVEIK
Data returned: 7.5
